Test: TOR pathway RPL19A-GFP modulators, concentration series – cell-based, S. cerevisiae, flow cytometry, MLPCN hits, dose response (AID 2740);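 note: background is signal of the same compound in parental non-GFP s288c yeast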
Settings: S. cerevisiae RPL19A-GFP strain, flow cytometry fluorescence, 3 h; at 33 µM (top of the series)
Active and inactive are the calls of the source.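 Rule for the calls: active = compounds whose fitted half-maximal concentration for changing the GFP signal is at or below a set limit; inactive = the rest.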
observable: GFP fluorescence, lower = active (kMESF (background-subtracted))

1. Cc1nn(C)c(C)c1N1C(=O)c2cccc3c(Br)ccc(c23)C1=O    40.3 (inactive)
2. Nc1ccccc1SC(C[N+](=O)[O-])c1ccccc1 (centres undefined)    38.1 (inactive)
3. Cn1c(=O)c(C(=O)NNC(=O)c2ccc(Br)cc2)c(O)c2ccccc21    22.3 (inactive)
4. CCN(CC)C(=O)Oc1ccnc2cc(Cl)ccc12    41.8 (inactive)
5. Cc1cccc(C(=O)NNC(=S)NC(=O)c2ccccc2)c1    48.3 (inactive)
6. CC[C@]1(c2ccccc2C)ON(c2ccccc2C(F)(F)F)C1=O    40 (inactive)
7. COc1cc(CNC(=O)CCCCCCC(C)C)ccc1O    48.5 (inactive)
8. CC(=O)Oc1oc(-c2ccccc2)nc1C=Nc1ccccc1    39.7 (inactive)
9. COc1ccccc1NC1=C(Cl)C(=O)N(c2ccccc2)C1=O    39.5 (inactive)
10. CCCCc1ccc(NC(=O)CC(C)=O)cc1    47.2 (inactive)
11. CC1=C/C(=N\OS(=O)(=O)c2ccccc2)C(C)=CC1=O    17.1 (inactive)
12. Cc1cc(O)c(C(=O)/C=C/c2c(F)c(F)c(F)c(F)c2F)c(=O)o1    26.6 (inactive)
13. CCc1ccc(/C=C/C(=O)c2cc(Br)ccc(=O)c2O)cc1    40.6 (inactive)
14. Cc1ccc(S(=O)(=O)N2CC(C(=O)O)=CC[C@H]2c2ccc(Cl)cc2)cc1    37.3 (inactive)
15. O=c1c2sc(-c3ccccc3)cc2nc2n1CCC2    20.5 (inactive)
16. CC(=O)c1ccc(N2CCN(C(=O)c3ccc(Br)cc3)CC2)c(F)c1    46.1 (inactive)
17. O=C(/C=C/c1ccccc1)NC(=S)NNC(=O)Cc1cccs1    45.5 (inactive)
18. CCC(=O)Oc1oc(-c2ccccc2)nc1C=Nc1ccc(C)cc1    40.5 (inactive)
19. CC(=O)OC[C@]12CC[C@H]3[C@@](C)(CC[C@H]4C(C)(C)CCC[C@]34C)[C@@H]1C[C@H](C1=CC(=O)O[C@@H]1OC(C)=O)O2    18.7 (inactive)

Reference source for all entries: PubChem BioAssay AID2740
